The measured values listed here are drawn from patent US20090149389A1.

Let's look at some binders and their measured % of … [SEQ ID NO: 124] Reaction Velocity at an Inhibitor Concentration of 100 µM.
# system: MAPKAP kinase II (MK2) (UniProt P49137 1-400, limits assumed)
# Sequence (P49137 whole entry): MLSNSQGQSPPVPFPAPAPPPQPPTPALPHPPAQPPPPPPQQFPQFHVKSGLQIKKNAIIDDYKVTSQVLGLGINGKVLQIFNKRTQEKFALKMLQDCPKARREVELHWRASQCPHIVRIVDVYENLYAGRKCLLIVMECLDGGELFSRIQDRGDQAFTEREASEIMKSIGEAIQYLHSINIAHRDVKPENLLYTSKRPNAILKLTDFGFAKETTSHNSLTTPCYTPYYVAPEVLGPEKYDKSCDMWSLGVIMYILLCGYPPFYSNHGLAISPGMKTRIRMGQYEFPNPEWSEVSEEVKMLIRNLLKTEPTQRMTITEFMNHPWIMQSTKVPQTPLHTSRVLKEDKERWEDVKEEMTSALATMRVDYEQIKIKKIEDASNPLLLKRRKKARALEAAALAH
# testDetails: cell-based or functional assay
Where no end group is shown, it is not given here. [ ]: non-standard residue; d: D form.
Kindly provide the numeric value in % only, without the unit symbol.

Answered examples (2):
>  <binder>
KALNRQAGVAA

>  <resultUnit>
%

>  <resultNumber>
118

$$$$
>  <binder>
KALNRALGVAA

>  <resultUnit>
%

>  <resultNumber>
358

$$$$

% of … [SEQ ID NO: 124] Reaction Velocity at an Inhibitor Concentration of 100 µM for KALNRQLAVAA is 72

% of … [SEQ ID NO: 124] Reaction Velocity at an Inhibitor Concentration of 100 µM for KALNAQLGVAA is 358

% of … [SEQ ID NO: 124] Reaction Velocity at an Inhibitor Concentration of 100 µM for KALNRQLGVAA is 100

% of … [SEQ ID NO: 124] Reaction Velocity at an Inhibitor Concentration of 100 µM for KKKALNRQLGVAA is 91

% of … [SEQ ID NO: 124] Reaction Velocity at an Inhibitor Concentration of 100 µM for KALNRQLGVA is 100

% of … [SEQ ID NO: 124] Reaction Velocity at an Inhibitor Concentration of 100 µM for KALNRQ[dL]GVAA [KALNRQdLGVAA] is 357
